The reported measurements were obtained from paper PMC6018746.

- Test system: panel of 240 cancer cell lines
- Test details: 10-day growth/death assay (Eurofins panel)
- Assay type: cell-based
- Stated conditions: Homo sapiens, OVCAR-3, OVCAR3; read-out: gIC50
Measure: IC50 (nM)
Answer format: numeric, nM implied, no suffix.

-- ask Please report the measured IC50 for O=C(NC[C@H](O)CN1CCc2ccccc2C1)c1ccnc(NC2CCC2)c1
-- reply 51.4

====

- Test system: panel of 240 cancer cell lines
- Test details: 10-day growth/death assay (Eurofins panel)
- Assay type: cell-based
- Stated conditions: Homo sapiens, SW837, SW837; read-out: gIC50
Measure: pIC50
# pIC50 is unitless: minus log10 of the molar concentration; print number only

-- ask # lookup: panel of 240 cancer cell lines pIC50, key = O=C(NC[C@H](O)CN1CCc2ccccc2C1)c1ccnc(NC2CCC2)c1
-- reply 6.99
